Tested on: production of prostaglandin E2 (PGE2)
EXPERIMENTAL DETAILS: Production of prostaglandin E2 (PGE2) in cultures of mouse peritoneal cells stimulated with LPS (ELISA kit)
Format: cell-based, mice
CONDITION DETAILS: Table 3A, substance 50 μmol·l^−1, 6 h
MEASURED PROPERTY: Production of prostaglandins in % of the controls

- CCCCc1c(Cl)nc(N)nc1Cl: 13.14 ± 0.13 % of the controls
- C=CCc1c(Cl)nc(NC=O)nc1Cl: 16.42 ± 0.64 % of the controls
- O=CNc1nc(Cl)c(Cc2ccccc2)c(Cl)n1: 3.84 ± 0.11 % of the controls
- C=CCc1c(Cl)nc(N)nc1Cl: 90.81 ± 5.95 % of the controls
- CCCc1c(Cl)nc(N)nc1Cl: 31.73 ± 4.35 % of the controls

// Production of prostaglandins in % of the controls lookup, compound = CCc1c(Cl)nc(N=CN(C)C)nc1Cl , result: 30.40 ± 0.80 % of the controls

// Production of prostaglandins in % of the controls lookup, compound = CCC(C)c1c(Cl)nc(NC=O)nc1Cl (stereo not shown) , result: 30.48 ± 1.79 % of the controls

---

Test system: production of nitric oxide (NO)
EXPERIMENTAL DETAILS: Production of nitric oxide (NO) in cultures of mouse peritoneal cells stimulated with IFN-γ plus LPS (Griess reagent)
Assay type: cell-based, mice
CONDITION DETAILS: Table 3B; substance 50 μmol·l^−1; IFN-g plus LPS; 24 h
MEASURED PROPERTY: Production of nitric oxide in % of the controls

Answered examples (5):
• CCCCc1c(-c2ccoc2)nc(N)nc1-c1cc2ccccc2o1 = 11.15 ± 2.99; n = 6 % of the controls
• CCCCc1c(-c2cccc3ccccc23)nc(N)nc1-c1cccc2ccccc12 = 57.66 ± 6.53; n = 6 % of the controls
• CCCCc1c(-c2cccnc2)nc(N)nc1-c1cccs1 = 50.11 ± 3.95; n = 4 % of the controls
• CCCCc1c(-c2cccnc2)nc(N)nc1-c1ccco1 = 37.05 ± 6.68; n = 6 % of the controls
• CCCCc1c(Cl)nc(N)nc1-c1ccoc1 = 54.83 ± 2.82; n = 4 % of the controls

// Production of nitric oxide in % of the controls lookup, compound = CCCCc1c(-c2ccncc2)nc(N)nc1-c1ccco1 , result: 54.42 ± 2.64; n = 6 % of the controls

// Production of nitric oxide in % of the controls lookup, compound = CCCCc1c(-c2ccccc2)nc(N)nc1-c1cc2ccccc2o1 , result: 72.69 ± 10.36; n = 4 % of the controls

---

Test system: peritoneal cells of mice
EXPERIMENTAL DETAILS: Cell viability of mouse peritoneal cells (WST-1 kit)
Type: cell-based
CONDITION DETAILS: Table 3B, substance 50 μmol·l^−1, 24 h
MEASURED PROPERTY: Cell viabilities in % of the controls

Answered examples (3):
• CCCCc1c(-c2ccc(OC)cc2)nc(N)nc1-c1ccc(OC)cc1 = 98.75 ± 5.63; n = 12 % of the controls
• CCCCc1c(-c2ccoc2)nc(N)nc1-c1ccoc1 = 101.86 ± 5.13; n = 4 % of the controls
• CCCCc1c(-c2ccccc2)nc(N)nc1-c1ccc(F)cc1 = 121.04 ± 9.53; n = 4 % of the controls

// Cell viabilities in % of the controls lookup, molecule = CCCCc1c(-c2ccsc2)nc(N)nc1-c1ccsc1 , result: 118.67 ± 2.26; n = 8 % of the controls

// Cell viabilities in % of the controls lookup, molecule = CCCCc1c(-c2ccccn2)nc(N)nc1-c1cccc2ccccc12 , result: 64.97 ± 12.85; n = 8 % of the controls

// Cell viabilities in % of the controls lookup, molecule = CCCCc1c(-c2ccc(OC)cc2)nc(N)nc1-c1cc2ccccc2o1 , result: 75.92 ± 9.72; n = 8 % of the controls

// Cell viabilities in % of the controls lookup, molecule = CCCCc1c(-c2ccco2)nc(N)nc1-c1cc2ccccc2s1 , result: 98.88 ± 1.65; n = 8 % of the controls

// Cell viabilities in % of the controls lookup, molecule = CCCCc1c(-c2cccnc2)nc(N)nc1-c1cccc2ccccc12 , result: 111.00 ± 0.97; n = 4 % of the controls
